Kindly state IC50 for each of the entries shown.
Molecular target: human GOAT (Homo sapiens (Human))
Sequence (Q96T53 whole entry): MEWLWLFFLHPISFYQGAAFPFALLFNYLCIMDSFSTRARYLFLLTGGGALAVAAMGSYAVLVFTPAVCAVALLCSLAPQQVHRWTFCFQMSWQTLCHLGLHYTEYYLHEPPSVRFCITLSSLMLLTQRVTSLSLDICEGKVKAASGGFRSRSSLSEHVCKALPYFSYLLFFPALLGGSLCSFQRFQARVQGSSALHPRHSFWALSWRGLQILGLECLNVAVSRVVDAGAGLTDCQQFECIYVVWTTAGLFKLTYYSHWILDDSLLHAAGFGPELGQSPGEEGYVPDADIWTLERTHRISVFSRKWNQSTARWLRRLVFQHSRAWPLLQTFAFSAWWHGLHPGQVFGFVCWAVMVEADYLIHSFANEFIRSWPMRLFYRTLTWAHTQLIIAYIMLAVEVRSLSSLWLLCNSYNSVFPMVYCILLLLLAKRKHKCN
Test: Determination of hGOAT Activity in HEK293 Cells after Incubation with Test Compound
Details: HEK293 cells stably transfected with preproghrelin and human GOAT; octanoate-BSA 100 μM; acyl-ghrelin in medium by ELISA after 5 hours
Give the quantity in nM, number only.

Item: Cc1nc2nonc2c(N)c1Cc1ncc(C(F)(F)F)c(Cl)n1 | IC50: 2.5

Item: Cc1nc2nonc2c(N)c1Cc1cc(C#N)c(C(F)(F)F)cn1 | IC50: 3.6

Item: Cc1nc2nonc2c(N)c1Cc1ccc(C#N)c(NCCCF)n1 | IC50: 0.027

Item: Cc1nc2nonc2c(N)c1Cc1ccc(OC2CC2)cn1 | IC50: 1.2

Item: Cc1nc2nonc2c(N)c1Cc1ccc(F)c(C#N)n1 | IC50: 4.4

Item: Cc1nc2nonc2c(N)c1Cc1ccc(Br)c(NCC2(C)CCOC2)n1 (stereo not shown) | IC50: 0.17

Item: Cc1nc2nonc2c(N)c1Cc1ccc(OC(F)F)c(C#N)n1 | IC50: 0.082

Item: Cc1nc2nonc2c(N)c1Cc1cccc([S+](C)[O-])n1 (stereo not shown) | IC50: 6.9

Item: Cc1nc2nonc2c(N)c1Cc1ccc2c(n1)OCCO2 | IC50: 0.32

Item: Cc1nc2nonc2c(N)c1Cc1ncc(Cl)cn1 | IC50: 2.7

Ref: patent US10308667B2
